- System: LOX IMVI melanoma
- assaySummary: NCI tumour cell line growth inhibition, 48 h
Below, each of the molecules is paired with its reported TGI value.

# annotated cases, reported TGI shown
COc1cc(Cn2c(-c3nonc3N)nc3ccccc32)ccc1C | > 100 µM
O=C1CC(=O)OC(c2ccc([N+](=O)[O-])cc2)O1 | 3.17 µM
NC(=O)c1ccc(C2C3=C(CCCC3=O)OC3=C2C(=O)c2ccccc2C3=O)cc1 (stereo not drawn) | 1.06 µM

Form entry - test system: LOX IMVI melanoma; read-out: TGI; molecule: COc1cc(S(=O)(=O)Nc2ccc(C3=NNC(c4ccccc4)C3)cc2)ccc1F (stereo not drawn)
> 100 µM

Request: Cc1nc(C(N)=S)sc1C(=O)C/C(=N/N)C(=O)Nc1cccc(Cl)c1C
> 100 µM

Request: COc1ccc2c(c1)/c(=C/c1ccc(N(C)C)cc1)c1cc(-c3ccccc3)[n+](C)n12
1.51 µM

Request: CC(C)Oc1cc(O)c2c(c1)OCC=C2CCC(=O)O
> 100 µM

Request: Clc1ccc(N=c2oc3ccccc3cc2-c2nc3ccccc3[nH]2)c(Cl)c1
> 100 µM

Request: CCOC(=O)C(CS)NC(=O)CCCCCCCC(=O)NC(CS)C(=O)OCC (stereo not drawn)
> 100 µM

Request: O=[N+]([O-])c1nccn1COCCBr
> 100 µM

Request: COC(=O)c1nc(N)[nH]c(=O)c1CCCCCc1c(C(=O)OC)nc(N)[nH]c1=O
> 50 µM

Request: Cc1ccc(S(=O)(=O)N=Nc2c(O)[nH]c3c(Cl)cc(Cl)cc23)cc1
> 100 µM

Request: O=c1[nH]nc(Cc2ccccc2)n1-n1cnnc1
> 100 µM

----------
- Tested on: SF-268 CNS
- assaySummary: NCI tumour cell line growth inhibition, 48 h; in the data active = GI50 below about 0.43 µM; inactive = the rest
Hi! Could you answer with just one of these? 1 (active), -1 (inactive)

A selection of reference data follows.
O=C1CC(=O)OC(c2ccc([N+](=O)[O-])cc2)O1 | -1
CCN(CC)CCCC(C)Nc1c2ccc(C)cc2nc2ccc(OC)cc12 (configuration not stated) | -1

Please let me know the test result on file for Cc1cc(N/N=C/c2nc(-c3ccc(Cl)cc3)oc2C)c2cc(Cl)ccc2n1 .
-1

Request: CN[C@@H]1C[C@H]2O[C@@](C)([C@@H]1OC)n1c3ccccc3c3c4c(c5c6ccccc6n2c5c31)C(=O)N[C@@H]4O
1

Request: COc1cc(Cn2c(-c3nonc3N)nc3ccccc32)ccc1C
-1

Request: FCc1ncc(-c2ccc(C(F)(F)F)cc2)c(NC2CCCCCC2)n1
-1

Request: COc1cc(S(=O)(=O)Nc2ccc(C3=NNC(c4ccccc4)C3)cc2)ccc1F (configuration not stated)
-1

Request: O=[N+]([O-])c1ccc2c(c1)[O][Sn][O]2
-1

Request: Oc1ccccc1-c1nc2c3ccccc3c3ccccc3c2[nH]1
-1

Request: COc1cc(/C=C2/N=C(c3ccccc3)N(C3=NNC4(C(=O)N3)c3ccccc3-c3ccccc34)NC2=O)ccc1O
-1

Request: COc1ccc(Cl)cc1Nc1nc(C(F)(F)F)ccc1C(=O)N/N=C/c1cc(OC)c(OC)c(OC)c1
-1

Request: COc1ccc(-c2cn[nH]c2-c2cc(OC)c3c(c2)OCCO3)cc1
-1
